- Tested on: SF-268 CNS
- Test Name: NCI-60 one-dose screen, 48 h
- Test Settings: 10 µM unless noted
The panel holds about 83,000 compounds, 20% with a hit somewhere; the sample as a whole holds those more often. Active and inactive are the calls of the source. Rule for the calls: active = growth percent below 10; inactive = the rest.
API: response.call in active, inactive

What was the test verdict on S=C(c1ccc2c(c1)OCO2)N1CCN(c2ccccc2Cl)CC1 ?
inactive

Next record, please: O=C(O)CN1C(=O)CCC1=O
inactive

Next record, please: COC(=O)[C@]12CC[C@@H](C)[C@H](C)[C@@H]1C1=CC[C@@H]3[C@@]4(C)C(C=O)=C[C@@](C)(COC(=O)c5ccco5)C4=CC[C@@]3(C)[C@]1(C)CC2
active

Next record, please: CCN1CCN(c2cc(C)nc(NCc3cc(Nc4ccnc5cc(Cl)ccc45)ccc3F)n2)CC1
inactive

Next record, please: O=c1cc(C2NNC(=S)N2)c2ccc3ccccc3c2o1 (stereo not given)
inactive
